# System: HT-29
# Procedure Text: NCI tumour cell line growth inhibition, 48 h
Active and inactive are the calls of the source. No stated cut-off is given here; in the data, active = GI50 up to about 1.1 µM and inactive = higher.
Parameter Measured: GI50

The following molecules have reported results that may help.
O=C(/C=C/c1ccccc1O)C(c1ccccc1)c1ccccc1
> 100 µM (inactive)
CN1Cc2cc(O)c(O)cc2C(O)C1 (stereo unspecified)
> 100 µM (inactive)
Cc1c(-c2ccccc2)[nH]c2cn[nH]c(=O)c12
> 100 µM (inactive)
CN1N=C(c2ccncc2)OC1c1ccc(C(F)(F)F)cc1 (stereo unspecified)
> 100 µM (inactive)
Cc1ccc(C(=O)CC2=Nc3nnc(CCCCCCCc4nnc5n4C(=O)C(CC(=O)c4ccc(C)cc4)=N5)n3C2=O)cc1
> 100 µM (inactive)

Next up:
Quick check: GI50 of CCOC(=O)c1c(SCc2ccccc2)nc2c3ccccc3ccn12 ?
> 100 µM (inactive)

----------
# Tested on: NCI-H23
# Procedure Text: NCI tumour cell line growth inhibition, 48 h
Active and inactive are the calls of the source. No stated cut-off is given here; in the data, active = GI50 up to about 1.1 µM and inactive = higher.
Reported GI50 values for the following compounds.

For orientation, consider the following solved cases.
N#CC1(C#N)C2=C(CCCC2)NC(c2ccc(Br)cc2)C1(C#N)C#N (stereo not given)
12.3 µM (inactive)
CN1CCCC(OC(=O)c2cc3cc(CCl)ccc3oc2=O)C1 (stereo not given)
19.3 µM (inactive)

Would you mind telling me what GI50 value was observed for O=C(/C=C\c1ccc([N+](=O)[O-])cc1)c1ccccc(=O)c1O ?
2.33 µM (inactive)

// next record C[C@@H]1OC(=O)C[C@H]2CC(=O)N(CCC3CN(C(=O)c4ccccc4)c4ccccc43)C[C@@H]21 (stereo not given in full)
> 100 µM (inactive)

Try this compound next: O=C(Nc1ccccc1)N(C1=NCC(CI)S1)c1ccc(F)c(F)c1 (stereo not given)
29.2 µM (inactive)

Try the compound Cc1cccc(NC(=O)/C=C/c2ccccc2)c1C
> 100 µM (inactive)

Input CN(CC(=O)N1CC(CCl)c2ccc([N+](=O)[O-])cc21)CC(=O)N1CC(CCl)c2ccc([N+](=O)[O-])cc21 (stereo not given)
> 100 µM (inactive)

Cool, now O=C(c1ccccc1)[C@H]1Nc2cnccc2C2c3ccccc3CC21 (stereo not given in full)
8.51 µM (inactive)

Same for COc1c(C)c(C/C=C(\C)CC/C=C(\C)CC/C=C(\C)CCC=C(C)C)c(OC)c(OC)c1OC
> 100 µM (inactive)

Repeat with COc1ccc(OC)c2sc(N3C(=O)/C(=C/c4ccc(Cl)cc4)N=C3c3ccccc3)nc12
> 100 µM (inactive)

----------
# Tested on: HOP-18
# Procedure Text: NCI tumour cell line growth inhibition, 48 h
The source made the active and inactive calls. Rule as the data show it: active = GI50 up to about 1.1 µM and inactive = higher.
Known GI50 of a selection of molecules

COc1ccc(Br)c(C(=O)N2CCc3ccccc32)c1N
47.9 µM (inactive)

Identify the measured GI50 of CC(C)=CC(=O)C/C(=N\NC(N)=S)C(=O)Nc1ccc(Cl)cc1 for HOP-18.
> 100 µM (inactive)

// next record CC(=O)OC(OC(C)=O)c1ncccc1C(=O)OC(C)C
> 100 µM (inactive)

Field entry: CC#CCC1CCC(OCC)=CC1=O (centres undefined)
> 100 µM (inactive)

----------
# System: HL-60
# Procedure Text: NCI tumour cell line growth inhibition, 48 h
Activity calls are given as the source filed them. Cut-off read from the data, not from the text of the source: active = GI50 up to about 1.1 µM and inactive = higher.
Reply using exactly one outcome from 1.0 for active, 0.0 for inactive

Use the examples below as a reference point.
N#CCCN(CCCN(C(=O)Nc1ccccc1)c1ccccc1)C(=O)Nc1ccccc1
0.0
CCOC(=O)CC(=O)ON(C)C(=O)Cc1ccccc1
0.0
O=C1CCCC(O)=C1SC1=C(O)CCCC1=O
0.0
COc1cc(OC)c(C#N)c(OC)c1C
0.0
CN1OC(=O)N(C)C1c1ccccc1 (stereo not drawn)
0.0

Please let me know the test result on file for Cc1ccc2c(c1C)CC1(Cc3c(ccc4c3CCC4)C1=O)C2=O (stereo not drawn) .
0.0

Follow-up item: COc1ccc(/C(Cl)=C(\CN(C)C)c2ccc(OC)c(OC)c2)cc1OC.[B]
0.0

And CC(C)(C)CNCCO ?
0.0

Also CS/C(=N\c1ccccc1)N(c1ccccc1)c1nc(=[N+](C)C)ss1.[O-][Cl+3]([O-])([O-])[O-] , if possible.
1.0

Then CN(C)CCN1C(=O)c2ccccc2C1(O)c1ccc(Cl)cc1 (stereo not drawn) ?
0.0

# iterate: Cc1cccc(NC(=O)/C=C/c2ccccc2)c1C
0.0

And what about the compound Cc1ccc(/C=C2\CCC/C(=C\c3ccc(O)c(CN4CCCCC4)c3)C2=O)cc1 ?
0.0

----------
# System: CAKI-1
# Procedure Text: NCI tumour cell line growth inhibition, 48 h
Activity calls are given as the source filed them. Cut-off read from the data, not from the text of the source: active = GI50 up to about 1.1 µM and inactive = higher.
Each item that follows carries a reported GI50.

c1ccc(-c2nnc(-c3ccccn3)c3c2C[C@@H]2C[C@@H]4Cc5c(-c6ccccn6)nnc(-c6ccccn6)c5[C@@H]4[C@H]32)nc1
58.7 µM (inactive)
COc1ccc2c(c1)CCc1c(C(C)=O)c3ccccc3n1C2
24 µM (inactive)
CN1C(c2ccccc2)CC(C)(O)CC1c1ccccc1 (centres undefined)
> 100 µM (inactive)
O=C(c1cccc(OCc2ccccc2)c1OCc1ccccc1)N1CCSC1=S
31 µM (inactive)
CC1OC2/C=C\CC(O)C(C)(C)C3CCC(C)C4(O3)O[B-]35OC(C(=O)OC1C2)C1(OC(CCC1C)C(C)(C)C(O)C/C=C\C1CC(OC(=O)C4O3)C(C)O1)O5 (centres undefined)
7.6 µM (inactive)

Give the reported GI50 for COc1cccc(-n2nnc3c(N)nc(N)nc32)c1 (system: CAKI-1).
> 100 µM (inactive)

Entry CN(C)c1ncnc2c1ncn2CCn1cnc2c(N(C)C)ncnc21 please
> 100 µM (inactive)

Ok, now Cc1ccc2c(c1CCCC(C)(C)O)C(=O)C(O)=C(C(C)C)C2=O
> 100 µM (inactive)

Okay, and CN(C(=O)c1ccc(Cl)s1)C(=S)N(C)C(=O)c1ccc(Cl)s1 ?
> 10 µM (inactive)

----------
# Test system: DLD-1
# Procedure Text: NCI tumour cell line growth inhibition, 48 h
Calls of active or inactive are those of the source. Cut-off read from the data, not from the text of the source: active = GI50 up to about 1.1 µM and inactive = higher.
Give your call using only these classes: active, inactive

CC(=O)Nc1ccc(/C=C/C(=O)c2sc(-c3cccnc3)nc2C)cc1
inactive
O=C(c1ccc(O)cc1O)C1C(c2ccc(O)cc2)OC(c2ccc(O)cc2)C1C(=O)c1ccc(O)cc1O (stereo not drawn)
inactive
Cc1ccc([S+]([O-])c2ccccc2[N+](=O)[O-])cc1 (stereo not drawn)
inactive

Dear all, I need the recorded test outcome for C[N+]1(C)C/C(=C/c2ccc(F)cc2)C(=O)/C(=C\c2ccc(F)cc2)C1 , thank you.
inactive

Further, for Cc1ccc(S(=O)(=O)N/N=C(\c2nc3ccc(Cl)cc3[nH]c2=O)C(O)c2ccco2)cc1 (stereo not drawn) ?
inactive

Item: CSc1cccc(-n2c3nc(=O)n(C)c(=O)c-3nc3ccccc32)c1
inactive

Here is the next compound: C[P+](C)(C)c1ccccc1
inactive

Request: O=CC1CCCc2ccccc21 (stereo not drawn)
inactive

Okay, and O=C1CCC(=O)c2cc(Br)ccc2N1 ?
inactive

Can you handle CC(=O)OC(OC(C)=O)c1ncccc1C(=O)OC(C)C next?
inactive

----------
# Test system: Malme-3M
# Procedure Text: NCI tumour cell line growth inhibition, 48 h
Activity calls are given as the source filed them. No stated cut-off is given here; in the data, active = GI50 up to about 1.1 µM and inactive = higher.
Parameter Measured: GI50

Please review the following examples before continuing.
O=c1[nH]n(Cc2ccccc2)c2ccc([N+](=O)[O-])cc12
44.5 µM (inactive)
CCCCC(C#N)(OP1(=O)OC(c2ccccc2)C(C)N1C)c1ccccc1 (stereo unspecified)
15.6 µM (inactive)

Proceed to the following item.
Item under review: CCOC(OC1=C(C#N)CCCC1)C(CC)[Se]c1ccccc1[N+](=O)[O-] (stereo unspecified) . Reported GI50?
22.8 µM (inactive)

----------
# System: BT-549
# Procedure Text: NCI tumour cell line growth inhibition, 48 h
Active and inactive are the calls of the source. No stated cut-off is given here; in the data, active = GI50 up to about 1.1 µM and inactive = higher.
GI50 values by entry

COc1cccc(CCn2c(N)c(-c3ccccc3)c3ccc([N+](=O)[O-])cc3c2=O)c1
1.61 µM (inactive)

Give BT-549 GI50 for CC(C)(CC1(C)NC(=O)NC1=O)OCc1ccccc1 (stereo unspecified)
> 100 µM (inactive)

What do you get for COc1ccc(-c2cc(-c3cc(F)c(Cl)cc3Cl)on2)cc1OC ?
33 µM (inactive)

Consider next the molecule Oc1cc(-c2ccc(F)cc2)nc2ncccc12 in the same way.
> 100 µM (inactive)

Then what about the molecule CCN(CC)c1ccc(C2SCC(=O)N2c2ccc(NC(=O)c3ccc(N4C(=O)CSC4c4ccc(N(CC)CC)cc4)cc3)cc2)cc1 (stereo unspecified) ?
> 100 µM (inactive)

What do you get for CC1(C)CC(C2=NCCO2)CC(C)(C)N1 ?
> 100 µM (inactive)

----------
# System: DLD-1
# Procedure Text: NCI tumour cell line growth inhibition, 48 h
The source made the active and inactive calls. No stated cut-off is given here; in the data, active = GI50 up to about 1.1 µM and inactive = higher.
Classes to choose from: active, inactive

CNC(=O)OCc1nc(SC)n(C)c1COC(=O)NC
inactive
C=C1C(=O)O[C@@H]2C[C@]3(C)[C@@H](C[C@H]12)[C@](C)(O)CC[C@@H]3O
inactive
C=C1C(=O)OC2C1CCC(C)C1C=CC(=O)C12C (stereo not given)
inactive
Cc1c(CNc2ccc(Cl)c(C(=O)NC(CC(=O)O)C(=O)O)c2)ccc2nc(N)nc(N)c12 (stereo not given)
active

Continue with the molecule presented below.
Which outcome was entered for the molecule COc1ccc(C2C(Cl)C(=O)N2NC(=O)c2ccc(N)cc2)cc1 (stereo not given) in this test?
inactive

Origin of measurements: ChEMBL document CHEMBL1201862
